Values were extracted from patent US12162863B2.

System: NF-κB pathway in THP-1 dual cells
Assay: THP-1 Dual Reporter Assay, NF-κB pathway (SEAP reporter)
Format: cell-based
Conditions: Homo sapiens, THP1-Dual, 18 h of stimulation, absorbance at 630 nm, read-out: THP1 Dual EC50 (μM) NFkB
outcome measure: EC50

Worked set:
>  <compound>
Cc1oc2cc(Br)c(F)cc2c(=O)c1CN(CCCc1cccnc1)Cc1ccncc1

>  <assayed system>
NF-κB pathway in THP-1 dual cells

>  <EC50>
≤ 10 µM

$$$$
>  <compound>
CC(CCn1cnc2ccccc21)N(Cc1ccncc1)Cc1coc2c(ccc3ccccc32)c1=O (centres unmarked)

>  <assayed system>
NF-κB pathway in THP-1 dual cells

>  <EC50>
≤ 10 µM

$$$$
>  <compound>
O=c1c(CN(CCCn2ccnn2)Cc2ccncc2)coc2ccccc12

>  <assayed system>
NF-κB pathway in THP-1 dual cells

>  <EC50>
≥ 20 µM

$$$$
>  <compound>
Cc1oc2cc(Br)ccc2c(=O)c1CN(CCCn1ccnc1)Cc1ccncc1

>  <assayed system>
NF-κB pathway in THP-1 dual cells

>  <EC50>
≤ 10 µM

$$$$
>  <compound>
COc1ccc2c(=O)c(CN(CCCn3ccnc3)Cc3ccncc3)coc2c1

>  <assayed system>
NF-κB pathway in THP-1 dual cells

>  <EC50>
≤ 10 µM

$$$$
>  <compound>
Cc1ccc2c(=O)c(CN(CCCn3ccnc3)Cc3ccnc(F)c3)coc2c1C

>  <assayed system>
NF-κB pathway in THP-1 dual cells

>  <EC50>
≥ 20 µM

$$$$

Query: EC50; subject: `Cc1oc2cc(N3CCN(C)CC3)c(F)cc2c(=O)c1CN(CCCc1cccnc1)Cc1ccncc1`
≤ 10 µM

Try this compound too: `O=c1c(CN(CCCn2ccnc2)Cc2ccncc2)coc2ccccc12`
≥ 20 µM

Try this compound too: `O=c1c(CN(CCCc2cccnc2)Cc2ccncc2)coc2c1ccc1ccccc12`
≤ 10 µM

Try this compound too: `Cc1oc2c(ccc3ccccc32)c(=O)c1CN(CCCn1ccnc1)Cc1ccncc1`
≤ 10 µM

Try this compound too: `COc1ccc(-c2ccc3c(=O)c(CN(CCCn4ccnc4)Cc4ccncc4)coc3c2)cc1OC`
≥ 20 µM

---

Biological target: human STING (Homo sapiens)
Sequence (Q86WV6 whole entry H232R): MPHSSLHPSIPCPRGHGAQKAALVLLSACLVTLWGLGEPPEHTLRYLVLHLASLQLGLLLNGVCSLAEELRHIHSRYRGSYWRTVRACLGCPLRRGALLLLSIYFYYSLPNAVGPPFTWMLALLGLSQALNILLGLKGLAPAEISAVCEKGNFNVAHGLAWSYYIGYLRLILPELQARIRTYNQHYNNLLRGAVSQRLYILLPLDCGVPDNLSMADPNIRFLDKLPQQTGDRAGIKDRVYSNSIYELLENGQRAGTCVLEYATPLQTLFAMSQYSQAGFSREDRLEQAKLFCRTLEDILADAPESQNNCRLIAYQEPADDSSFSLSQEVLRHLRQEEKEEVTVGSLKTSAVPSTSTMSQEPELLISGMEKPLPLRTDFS
Experiment: Fluorescence Thermal Shift assay
Type: binding
Conditions: 50 μM compound; STING 0.1 mg/ml; 20 minutes preincubation; read-out: [hSTING] FTS, ΔTm [° C.] for 50 μM
Listed next: entries and their corresponding ΔTm at 50 µM.

Worked set:
>  <record smiles>
COc1cc(CN(CCCn2cnc3ccccc32)Cc2c[nH]c3ccccc3c2=O)ccn1

>  <assayed system>
human STING (Homo sapiens)

>  <ΔTm at 50 µM>
> 2.5 °C

$$$$
>  <record smiles>
O=c1c(CN(CCCn2ccnc2)Cc2ccncc2)coc2c1ccc1ccccc12

>  <assayed system>
human STING (Homo sapiens)

>  <ΔTm at 50 µM>
> 2.5 °C

$$$$
>  <record smiles>
O=c1c(CN(CCCn2ccnc2)Cc2ccncc2)coc2c(F)cc(F)cc12

>  <assayed system>
human STING (Homo sapiens)

>  <ΔTm at 50 µM>
< 2.5 °C

$$$$
>  <record smiles>
Cc1oc2cc(Br)c(F)cc2c(=O)c1CN(CCCn1cnc2cncnc21)Cc1ccncc1

>  <assayed system>
human STING (Homo sapiens)

>  <ΔTm at 50 µM>
> 2.5 °C

$$$$

Turning now to a further molecule:
Query: ΔTm at 50 µM; subject: `COc1cc(CN(CCCn2ccnc2)Cc2coc3c(C)c(C)ccc3c2=O)ccn1`
> 2.5 °C
